Target: BRM (Homo sapiens)
Sequence (P51531 whole entry): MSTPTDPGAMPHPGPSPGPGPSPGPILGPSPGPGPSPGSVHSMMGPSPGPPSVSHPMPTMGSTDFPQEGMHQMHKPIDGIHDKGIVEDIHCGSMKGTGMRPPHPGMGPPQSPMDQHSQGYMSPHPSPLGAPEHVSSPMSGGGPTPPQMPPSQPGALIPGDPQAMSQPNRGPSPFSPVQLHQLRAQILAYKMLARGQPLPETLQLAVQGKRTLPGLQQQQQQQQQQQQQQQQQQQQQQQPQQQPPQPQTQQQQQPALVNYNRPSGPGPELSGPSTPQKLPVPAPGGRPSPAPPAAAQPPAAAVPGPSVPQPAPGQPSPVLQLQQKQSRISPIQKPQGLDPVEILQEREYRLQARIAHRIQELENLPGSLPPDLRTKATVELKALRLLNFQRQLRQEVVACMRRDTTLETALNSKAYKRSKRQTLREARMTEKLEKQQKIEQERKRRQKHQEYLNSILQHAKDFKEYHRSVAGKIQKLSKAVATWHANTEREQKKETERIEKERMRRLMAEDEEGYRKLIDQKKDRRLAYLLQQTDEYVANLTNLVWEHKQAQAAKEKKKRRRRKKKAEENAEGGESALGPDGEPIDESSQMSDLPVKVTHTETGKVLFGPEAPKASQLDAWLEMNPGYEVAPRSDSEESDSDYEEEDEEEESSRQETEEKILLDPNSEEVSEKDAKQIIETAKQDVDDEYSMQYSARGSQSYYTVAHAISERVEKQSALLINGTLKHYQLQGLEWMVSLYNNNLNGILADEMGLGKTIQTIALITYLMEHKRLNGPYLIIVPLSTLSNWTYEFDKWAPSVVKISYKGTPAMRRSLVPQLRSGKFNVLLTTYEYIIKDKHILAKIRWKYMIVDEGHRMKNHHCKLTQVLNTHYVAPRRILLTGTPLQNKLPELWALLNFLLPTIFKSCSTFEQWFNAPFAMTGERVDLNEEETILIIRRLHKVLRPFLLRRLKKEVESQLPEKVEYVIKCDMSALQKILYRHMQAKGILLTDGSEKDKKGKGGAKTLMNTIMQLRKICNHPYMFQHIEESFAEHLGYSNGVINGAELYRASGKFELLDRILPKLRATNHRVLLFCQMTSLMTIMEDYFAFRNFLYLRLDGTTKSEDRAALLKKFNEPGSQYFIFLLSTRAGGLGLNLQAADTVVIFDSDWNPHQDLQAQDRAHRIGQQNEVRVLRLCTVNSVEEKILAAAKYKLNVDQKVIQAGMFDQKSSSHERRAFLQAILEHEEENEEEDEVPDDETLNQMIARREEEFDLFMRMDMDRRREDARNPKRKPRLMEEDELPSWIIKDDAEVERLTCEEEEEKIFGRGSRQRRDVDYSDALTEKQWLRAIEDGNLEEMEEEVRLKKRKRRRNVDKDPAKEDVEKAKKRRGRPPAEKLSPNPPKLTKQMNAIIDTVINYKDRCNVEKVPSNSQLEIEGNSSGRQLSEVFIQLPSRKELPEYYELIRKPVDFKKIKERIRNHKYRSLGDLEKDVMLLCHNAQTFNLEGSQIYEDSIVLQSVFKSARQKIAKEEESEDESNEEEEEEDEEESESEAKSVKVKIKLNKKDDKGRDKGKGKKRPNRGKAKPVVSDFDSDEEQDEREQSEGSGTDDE
Experiment: ATPase catalytic activity of BRM (ADP-Glo in vitro biochemical assay)
Conditions: Table 6
Quick list: BRM Max % Inhibition per entry.
assay.endpoint: BRM Max % Inhibition

                                   compound  observed_result
0  Nc1ccc(C(=O)NCC(=O)Nc2nc(-c3cccc(N4CCS(=O)(=O)CC4)c3)cs2)cc1 [Compound 185]             >80%
1  CN(C)C(=O)c1ccc(-c2cccc(-c3csc(NC(=O)CNC(=O)c4ccc(N)cc4)n3)c2)cc1 [Compound 137]             >90%
2  COc1ccc(-c2cccc(-c3csc(NC(=O)CNC(=O)c4ccc(N)cc4)n3)c2)cn1 [Compound 127]             >90%
3  Nc1ccc(C(=O)NCC(=O)Nc2nc(-c3cccc(N4CCC[C@H](O)C4)c3)cs2)cc1 [Compound 236]             >90%

----------
Target: BRG-1 (Homo sapiens)
Experiment: ATPase catalytic activity of BRG-1 (ADP-Glo in vitro biochemical assay)
Settings: Table 6
Quick list: BRG1 Max % Inhibition per entry.
assay.endpoint: BRG1 Max % Inhibition

>>> print(df.to_string())
                                   molecule   experimental_system  observed_result
0  CN(C)CCn1cc(-c2cccc(-c3csc(NC(=O)CNC(=O)c4ccc(N)cc4)n3)c2)ccc1=O [Compound 170]  BRG-1 (Homo sapiens)             >95%
1  CC(C)(O)c1cccc(-c2csc(NC(=O)CNC(=O)c3ccc(N)cc3)n2)c1 [Compound 198]  BRG-1 (Homo sapiens)             >60%
2  CN(C)CCN(C)c1cc(-c2cccc(-c3csc(NC(=O)CNC(=O)c4ccc(N)cc4)n3)c2)ccn1 [Compound 191]  BRG-1 (Homo sapiens)             >95%
3  CSCC[C@H](NC(=O)c1ccc(N)cc1)C(=O)Nc1nc(-c2ccc(CNC(C)=O)cc2)cs1 [Compound 121]  BRG-1 (Homo sapiens)             >95%
4  Cn1ccc(-c2cccc(-c3csc(NC(=O)CNC(=O)c4ccc(N)cc4)n3)c2)cc1=O [Compound 140]  BRG-1 (Homo sapiens)             >90%
5  COC(=O)Cc1cc(-c2cccc(-c3csc(NC(=O)CNC(=O)c4ccc(N)cc4)n3)c2)ccn1 [Compound 177]  BRG-1 (Homo sapiens)             >95%
6  COc1ccc(-c2cccc(-c3csc(NC(=O)CNC(=O)c4ccc(N)cc4)n3)c2)cn1 [Compound 127]  BRG-1 (Homo sapiens)             >80%
7  Cc1ccc(-c2csc(NC(=O)CNC(=O)c3ccc(N)cc3)n2)cc1-c1ccncc1 [Compound 188]  BRG-1 (Homo sapiens)             >80%

----------
Target: UniProtKB P51532
pIC50: −log10 of the molar value.
Quick list: pIC50 per entry.
assay.endpoint: pIC50

                                    molecule  observed_result
 0  CN(C)CCn1cc(-c2cccc(-c3csc(NC(=O)CNC(=O)c4ccc(N)cc4)n3)c2)ccc1=O [Compound 170]     6.00 to 7.00
 1  CN(C)S(=O)(=O)c1cccc(C(=O)NCC(=O)Nc2nc(-c3cccc(CN)c3)cs2)c1 [Compound 10]           < 5.00
 2  CN(C)S(=O)(=O)c1cccc(C(=O)NCC(=O)Nc2nc(-c3ccccc3Br)cs2)c1 [Compound 18]           < 5.00
 3  Nc1ccc(C(=O)NCC(=O)Nc2nc(-c3cccc(-c4ccc(O)cc4)c3)cs2)cc1 [Compound 139]           > 7.00
 4  COC(=O)C(C)(C)n1ccc(-c2cccc(-c3csc(NC(=O)CNC(=O)c4ccc(N)cc4)n3)c2)n1 [Compound 209]           > 7.00
 5  CNC(=O)c1ccc(-c2cccc(-c3csc(NC(=O)CNC(=O)c4ccc(N)cc4)n3)c2)cc1 [Compound 130]     5.00 to 6.00
 6  Nc1ccc(C(=O)NCC(=O)Nc2nc(-c3cccc(-c4ccnc(N)c4)c3)cs2)cc1 [Compound 133]           > 7.00
 7  COC(=O)c1cccc(-c2csc(NC(=O)CNC(=O)c3cccc(S(=O)(=O)N(C)C)c3)n2)c1 [Compound 9]           > 6.00
 8  CN(C)C1CCCN(c2cc(-c3cccc(-c4csc(NC(=O)CNC(=O)c5ccc(N)cc5)n4)c3)ccn2)C1 (stereo not drawn) [Compound 225]     6.00 to 7.00
 9  Nc1ccc(C(=O)NCC(=O)Nc2nc(-c3cccc(-c4ccn(CC(=O)O)n4)c3)cs2)cc1 [Compound 210]     6.00 to 7.00
10  Nc1ccc(C(=O)NCC(=O)Nc2nc(-c3cccc(-c4ccnc(N5CCNCC5)c4)c3)cs2)cc1 [Compound 159]     6.00 to 7.00
11  CN(C)CCNC(=O)Cc1cc(-c2cccc(-c3csc(NC(=O)CNC(=O)c4ccc(N)cc4)n3)c2)ccn1 [Compound 186]     6.00 to 7.00
12  CNCc1cc(-c2cccc(-c3csc(NC(=O)CNC(=O)c4ccc(N)cc4)n3)c2)ccn1 [Compound 196]     6.00 to 7.00
13  Cn1ccc2ccc(-c3csc(NC(=O)CNC(=O)c4ccc(N)cc4)n3)cc2c1=O [Compound 143]           > 7.00
14  Nc1ccc(C(=O)NCC(=O)Nc2nc(-c3cccc(-c4ccn(CC(F)(F)F)n4)c3)cs2)cc1 [Compound 151]     6.00 to 7.00
15  Nc1ccc(C(=O)NCC(=O)Nc2nc(-c3cccc(-c4ccnc(CC(=O)O)c4)c3)cs2)cc1 [Compound 224]           > 7.00
16  Nc1ccc(C(=O)NCC(=O)Nc2nc(-c3cccc(COc4ccncc4)c3)cs2)cc1 [Compound 197]           > 7.00
17  CC(C)(C(=O)O)n1ccc(-c2cccc(-c3csc(NC(=O)CNC(=O)c4ccc(N)cc4)n3)c2)n1 [Compound 212]     6.00 to 7.00
18  CN(C)CCNc1cc(-c2cccc(-c3csc(NC(=O)CNC(=O)c4ccc(N)cc4)n3)c2)ccn1 [Compound 189]     6.00 to 7.00
19  CN(C)CC[C@H](NC(=O)c1ccc(N)cc1)C(=O)Nc1nc(-c2cccc(-c3ccncc3)c2)cs1 [Compound 233]     6.00 to 7.00
20  CC(OC1CCOCC1)c1cccc(-c2csc(NC(=O)CNC(=O)c3ccc(N)cc3)n2)c1 (stereo not drawn) [Compound 235]     6.00 to 7.00
21  CNc1ccc(C(=O)NCC(=O)Nc2nc(-c3cccc(-c4ccncc4)c3)cs2)cc1 [Compound 126]           > 7.00
22  CSCC[C@H](NC(=O)c1ccc(N)cc1)C(=O)Nc1nc(-c2ccc(C#N)c(-c3ccccc3)c2)cs1 [Compound 119]     5.00 to 6.00
23  CNC(=O)Cn1ccc(-c2cccc(-c3csc(NC(=O)CNC(=O)c4ccc(N)cc4)n3)c2)n1 [Compound 216]     6.00 to 7.00
24  COC(C)(C)Cn1ccc(-c2cccc(-c3csc(NC(=O)CNC(=O)c4ccc(N)cc4)n3)c2)n1 [Compound 232]     6.00 to 7.00
25  Nc1ccc(C(=O)NCC(=O)Nc2nc(-c3cccc(-c4ccnc(CO)c4)c3)cs2)cc1 [Compound 165]           > 7.00
26  CSCC[C@H](NC(=O)c1cccc(S(=O)(=O)C(C)C)c1)C(=O)Nc1nc(-c2ccccc2)cs1 [Compound 14]           < 5.00
27  CNC(=O)C1(c2cc(-c3cccc(-c4csc(NC(=O)CNC(=O)c5ccc(N)cc5)n4)c3)ccn2)CC1 [Compound 223]           > 7.00
28  COc1cc(-c2cccc(-c3csc(NC(=O)CNC(=O)c4ccc(N)cn4)n3)c2)ccn1 [Compound 199]     6.00 to 7.00
29  Cn1ncc2ccc(-c3csc(NC(=O)CNC(=O)c4ccc(N)cc4)n3)cc2c1=O [Compound 150]           > 7.00

----------
Quick list: BRG1 Max % Inhibition per entry.
Target: BRG-1 (Homo sapiens, UniProt P51532)
Sequence (P51532 whole entry): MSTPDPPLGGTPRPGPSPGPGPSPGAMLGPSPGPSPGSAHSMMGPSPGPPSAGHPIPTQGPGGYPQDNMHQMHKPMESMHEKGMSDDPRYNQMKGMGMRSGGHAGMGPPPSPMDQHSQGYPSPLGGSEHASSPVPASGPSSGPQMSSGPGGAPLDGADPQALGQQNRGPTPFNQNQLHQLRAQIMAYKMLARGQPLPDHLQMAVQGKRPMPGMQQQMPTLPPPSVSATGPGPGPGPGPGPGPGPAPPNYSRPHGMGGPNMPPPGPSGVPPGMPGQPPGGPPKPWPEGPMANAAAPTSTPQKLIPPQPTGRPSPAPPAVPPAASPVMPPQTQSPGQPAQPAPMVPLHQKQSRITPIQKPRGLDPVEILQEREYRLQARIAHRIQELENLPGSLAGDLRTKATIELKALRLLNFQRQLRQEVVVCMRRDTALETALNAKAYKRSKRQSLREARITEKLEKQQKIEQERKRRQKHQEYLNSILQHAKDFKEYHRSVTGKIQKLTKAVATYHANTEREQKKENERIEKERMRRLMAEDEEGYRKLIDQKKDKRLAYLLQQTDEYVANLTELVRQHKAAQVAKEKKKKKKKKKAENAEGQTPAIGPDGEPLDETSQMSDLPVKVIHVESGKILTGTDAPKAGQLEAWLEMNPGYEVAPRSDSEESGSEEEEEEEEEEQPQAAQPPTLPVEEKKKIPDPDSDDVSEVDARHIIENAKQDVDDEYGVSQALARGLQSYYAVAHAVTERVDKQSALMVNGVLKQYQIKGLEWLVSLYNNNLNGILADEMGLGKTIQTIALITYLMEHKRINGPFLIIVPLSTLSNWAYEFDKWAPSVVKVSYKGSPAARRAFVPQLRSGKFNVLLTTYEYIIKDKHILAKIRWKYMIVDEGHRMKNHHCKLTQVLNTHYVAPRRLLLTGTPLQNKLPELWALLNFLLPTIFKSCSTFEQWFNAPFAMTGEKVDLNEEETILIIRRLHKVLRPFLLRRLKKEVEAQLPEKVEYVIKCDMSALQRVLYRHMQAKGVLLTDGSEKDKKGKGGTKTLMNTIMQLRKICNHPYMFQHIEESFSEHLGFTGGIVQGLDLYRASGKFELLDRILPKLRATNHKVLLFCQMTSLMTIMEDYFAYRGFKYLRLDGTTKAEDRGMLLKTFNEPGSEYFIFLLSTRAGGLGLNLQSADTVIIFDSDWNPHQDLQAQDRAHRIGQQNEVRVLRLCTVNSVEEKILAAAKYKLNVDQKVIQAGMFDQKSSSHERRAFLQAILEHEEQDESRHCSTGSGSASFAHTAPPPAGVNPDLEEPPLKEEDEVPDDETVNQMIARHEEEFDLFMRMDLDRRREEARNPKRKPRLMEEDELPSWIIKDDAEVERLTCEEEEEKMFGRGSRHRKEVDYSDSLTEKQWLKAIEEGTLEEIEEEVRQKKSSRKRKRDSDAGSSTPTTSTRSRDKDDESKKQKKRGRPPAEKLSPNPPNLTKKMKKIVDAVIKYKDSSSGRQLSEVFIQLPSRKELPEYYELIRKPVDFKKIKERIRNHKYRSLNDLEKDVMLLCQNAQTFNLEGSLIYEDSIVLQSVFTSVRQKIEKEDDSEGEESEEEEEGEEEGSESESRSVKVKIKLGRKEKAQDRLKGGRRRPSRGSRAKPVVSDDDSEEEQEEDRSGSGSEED
Assay: ATPase catalytic activity of BRG-1 (ADP-Glo in vitro biochemical assay)
Settings: Table 6
assay.endpoint: BRG1 Max % Inhibition

>>> print(df.to_string())
                                chem_smiles  observed_result
0  CC(C)(C(=O)O)n1ccc(-c2cccc(-c3csc(NC(=O)CNC(=O)c4ccc(N)cc4)n3)c2)n1             >95%
1  CN1CCN(c2cccc(-c3csc(NC(=O)CNC(=O)c4ccc(N)cc4)n3)c2)CC1=O             >70%
2  CSCC[C@H](NC(=O)c1ccc(N)cc1)C(=O)Nc1nc(-c2cccc(-c3cccc(CN)c3)c2)cs1             >90%
3  CNC(=O)C1(c2cc(-c3cccc(-c4csc(NC(=O)CNC(=O)c5ccc(N)cc5)n4)c3)ccn2)CC1             >90%
